# procedure_summary: Solubility of the compound at pH 6.8
# Format: physicochemical
# recorded_conditions: buffer
measured_endpoint: solubility (µg/mL)
Report the value in µg/mL with no unit label.

According to the records, this molecule COc1ccc2c(c1)/C(=C/c1cc3c([nH]1)CCN(C(=O)N1CCN(C)CC1)C3)C(=O)N2 displays solubility of 15

----------
// Leucine-rich repeat serine/threonine-protein kinase 2 (Homo sapiens, UniProt Q5S007) pIC50 records
pIC50: −log10 of the molar value.

CC(=O)N1CCc2[nH]c(/C=C3\C(=O)Nc4ccc(OC(C)C)cc43)cc2C1 on Leucine-rich repeat serine/threonine-protein kinase 2 (Homo sapiens, UniProt Q5S007) gives pIC50 = 8.40

CN1CCC(Nc2ccc3c(c2)/C(=C/c2cc4c([nH]2)CCN(C(=O)N2CCOCC2)C4)C(=O)N3)CC1 on Leucine-rich repeat serine/threonine-protein kinase 2 (Homo sapiens, UniProt Q5S007) gives pIC50 = > 8.52

// switching to the query compound
O=C1Nc2ccc(C(F)(F)F)cc2/C1=C/c1cc2c([nH]1)CCN(C(=O)N1CCOCC1)C2 on Leucine-rich repeat serine/threonine-protein kinase 2 (Homo sapiens, UniProt Q5S007) gives pIC50 = > 8.52

Source of measurements: ChEMBL document CHEMBL2401634
